- System: Pseudomonas aeruginosa
- ASSAY EXPLANATION: Antibacterial activity against Pseudomonas aeruginosa ATCC 27853 after 24 hrs by disc diffusion method
- Format: functional
- TEST PARAMETERS: ATCC 27853, 24 h
Listing of recorded MIC by entry.
Give the number; µg/mL is assumed, so skip it.

O=C1C=CC(=O)N1CC(=O)N1c2ccccc2Sc2ccccc21    15
O=C1CCC(=O)N1CC(=O)N1c2ccccc2Sc2ccc(C(F)(F)F)cc21    15

Form field: reported MIC of `CC(=O)c1ccc2c(c1)N(C(=O)CN1C(=O)C=CC1=O)c1ccccc1S2`
15

Would you mind telling me what MIC value was observed for `O=C1c2ccccc2C(=O)N1CC(=O)N1c2ccccc2Sc2ccc(Cl)cc21` ?
10

I have this compound here, `O=C1C=CC(=O)N1CC(=O)N1c2ccccc2Sc2ccc(C(F)(F)F)cc21` , and I need its recorded MIC.
15

Given the compound `O=C1C=CC(=O)N1CC(=O)N1c2ccccc2Sc2ccc(Cl)cc21` , what is its reported MIC?
15

Look at this compound and give its reported MIC. O=C(O)c1cn(C2CC2)c2cc(N3CCNCC3)c(F)cc2c1=O [CIPROFLOXACIN]
10

Endpoint output: MIC of `O=C1CCC(=O)N1CC(=O)N1c2ccccc2Sc2ccc(Cl)cc21` . Value?
15

====

- System: Aspergillus flavus
- ASSAY EXPLANATION: Antifungal activity against Aspergillus flavus NCIM 524 after 2 to 3 days by serial plate dilution method
- Assay type: functional
RECORDED ENDPOINT: MIC
# answer = value followed by unit

CC(=O)c1ccc2c(c1)N(C(=O)CN1C(=O)C=CC1=O)c1ccccc1S2    25 µg/mL
OC(Cn1cncn1)(Cn1cncn1)c1ccc(F)cc1F    10 µg/mL
O=C1C=CC(=O)N1CC(=O)N1c2ccccc2Sc2ccc(C(F)(F)F)cc21    20 µg/mL
O=C1c2ccccc2C(=O)N1CC(=O)N1c2ccccc2Sc2ccccc21    10 µg/mL

Quick one: MIC for `O=C1CCC(=O)N1CC(=O)N1c2ccccc2Sc2ccc(C(F)(F)F)cc21` ?
10 µg/mL

====

- Test system: Staphylococcus aureus
- ASSAY EXPLANATION: Antibacterial activity against Staphylococcus aureus ATCC 25923 at 10 ug/ml after 24 hrs by disc diffusion method
- Assay type: functional
- TEST PARAMETERS: ATCC 25923, 24 h, read-out: IZ
Documented zone of inhibition at 10 µg/mL across a set of molecules

Worked cases, zone of inhibition at 10 µg/mL given:
O=C1CCC(=O)N1CC(=O)N1c2ccccc2Sc2ccc(C(F)(F)F)cc21    18 mm
O=C1c2ccccc2C(=O)N1CC(=O)N1c2ccccc2Sc2ccccc21    20 mm
O=C1c2ccccc2C(=O)N1CC(=O)N1c2ccccc2Sc2ccc(Cl)cc21    19 mm
CC(=O)c1ccc2c(c1)N(C(=O)CN1C(=O)C=CC1=O)c1ccccc1S2    16 mm
O=C1CCC(=O)N1CC(=O)N1c2ccccc2Sc2ccc(Cl)cc21    12 mm
O=C1C=CC(=O)N1CC(=O)N1c2ccccc2Sc2ccccc21    15 mm
O=C1C=CC(=O)N1CC(=O)N1c2ccccc2Sc2ccc(Cl)cc21    18 mm
CC(=O)c1ccc2c(c1)N(C(=O)CN1C(=O)c3ccccc3C1=O)c1ccccc1S2    19 mm

Next molecule, please.
Given the entry O=C(O)c1cn(C2CC2)c2cc(N3CCNCC3)c(F)cc2c1=O [CIPROFLOXACIN] , report its measured zone of inhibition at 10 µg/mL.
21 mm

The values you see were collected from ChEMBL document CHEMBL1154781.
